# assay.info: MTT cytotoxicity assay
# Format: cell-based, human
# recorded.conditions: human, HEK293T cells, OD450, cytotoxicity (Fig 2a), replicates
Residues, ends and D or L forms follow the SMILES beside them.
measure: viability at 72 h, 3.13 µM (%)
Give the value, in units of %, as a plain number.

Here are 2 compounds together with their reported answers.
CC[C@H](C)[C@H](NC(=O)[C@H](CCCNC(=N)N)NC(=O)[C@H](CCCNC(=N)N)NC(=O)[C@H](CC(C)C)NC(=O)[C@@H](N)Cc1ccccc1)C(=O)N[C@@H](Cc1ccccc1)C(=O)N[C@@H](Cc1ccccc1)C(=O)N[C@@H](Cc1ccccc1)C(=O)N[C@@H](Cc1ccccc1)C(N)=O [HT1] (H-FLRRIFFFF-NH2)	30.5
CC[C@H](C)[C@H](NC(=O)[C@H](CCCNC(=N)N)NC(=O)[C@H](CCCNC(=N)N)NC(=O)[C@H](CC(C)C)NC(=O)[C@H](Cc1ccccc1)NC(=O)[C@H](Cc1ccccc1)NC(=O)[C@H](Cc1ccccc1)NC(=O)[C@@H](N)Cc1ccccc1)C(=O)N[C@@H](Cc1ccccc1)C(N)=O [F-SHf(R^5)] (H-FFFFLRRIF-NH2; N-terminus assumed)	78.6

Turning now to a further compound:
The compound CC[C@H](C)[C@H](NC(=O)[C@H](CCCNC(=N)N)NC(=O)[C@H](CCCNC(=N)N)NC(=O)[C@H](CC(C)C)NC(=O)[C@H](Cc1ccccc1)NC(=O)[C@@H](N)CCCNC(=N)N)C(=O)N[C@@H](Cc1ccccc1)C(=O)N[C@@H](Cc1ccccc1)C(=O)N[C@@H](Cc1ccccc1)C(=O)N[C@@H](Cc1ccccc1)C(N)=O [HT2] (H-RFLRRIFFFF-NH2) showed viability at 72 h, 3.13 µM equal to 95.4

----------
# assay.info: MTT cytotoxicity assay
# Format: cell-based, human
# recorded.conditions: human; HEK293T, MTT, 72 h; read-out: IC50, mammalian cell cytotoxicity
Residues, ends and D or L forms follow the SMILES beside them.
measure: IC50 at 72 h
Could you kindly put the unit after your number?

The molecule CC[C@H](C)[C@H](NC(=O)[C@H](CCCNC(=N)N)NC(=O)[C@H](CO)NC(=O)[C@H](CC(C)C)NC(=O)[C@H](Cc1ccccc1)NC(=O)[C@H](Cc1ccccc1)NC(=O)[C@@H](N)Cc1ccccc1)C(=O)N[C@@H](Cc1ccccc1)C(N)=O [SHf] (H-FFFLSRIF-NH2; N-terminus assumed) showed IC50 at 72 h equal to 59 µM

----------
# assay.info: MTT cytotoxicity assay
# Format: cell-based, human
# recorded.conditions: human, HEK293T cells, OD450, cytotoxicity (Fig 2a), replicates
# Description: To determine the cytotoxicity of the peptides, we used the MTT (3-(4,5)-dimethylthiahiazo (-z-y1)-3,5-di-phenytetrazoliumromide) dye reduction assay against HEK293T cells. In brief, the 100 μL of cells in 96-well plate were incubated for 24 h at 37 °C, 5% CO2, and then peptide solutions (concentrations ranging from 100 to 0.39 μM) were added and further incubated for 72 h. MTT solution (5 mg/mL) was added and further incubated for 4 h. […]
Residues, ends and D or L forms follow the SMILES beside them.
In this section we review reported viability at 72 h, 12.5 µM values for a set of compounds.
Could you kindly put the unit after your number?

CC[C@H](C)[C@H](NC(=O)[C@H](CCCNC(=N)N)NC(=O)[C@H](CCCNC(=N)N)NC(=O)[C@H](CC(C)C)NC(=O)[C@@H](N)Cc1ccccc1)C(=O)N[C@@H](Cc1ccccc1)C(=O)N[C@@H](Cc1ccccc1)C(=O)N[C@@H](Cc1ccccc1)C(=O)N[C@@H](Cc1ccccc1)C(N)=O [HT1] (H-FLRRIFFFF-NH2)	0.557%

The compound CC[C@H](C)[C@H](NC(=O)[C@H](CCCNC(=N)N)NC(=O)[C@H](CCCNC(=N)N)NC(=O)[C@H](CC(C)C)NC(=O)[C@H](Cc1ccccc1)NC(=O)[C@H](Cc1ccccc1)NC(=O)[C@H](Cc1ccccc1)NC(=O)[C@@H](N)Cc1ccccc1)C(=O)N[C@@H](Cc1ccccc1)C(N)=O [F-SHf(R^5)] (H-FFFFLRRIF-NH2; N-terminus assumed) showed viability at 72 h, 12.5 µM equal to 20.8%

The compound CC[C@H](C)[C@H](NC(=O)[C@H](CCCNC(=N)N)NC(=O)[C@H](CCCNC(=N)N)NC(=O)[C@H](CC(C)C)NC(=O)[C@H](Cc1ccccc1)NC(=O)[C@@H](N)CCCNC(=N)N)C(=O)N[C@@H](Cc1ccccc1)C(=O)N[C@@H](CCCCN)C(=O)N[C@@H](Cc1ccccc1)C(=O)N[C@@H](Cc1ccccc1)C(=O)N[C@@H](Cc1ccccc1)C(N)=O [HT5] (H-RFLRRIFKFFF-NH2) showed viability at 72 h, 12.5 µM equal to 8.57%

The compound CC[C@H](C)[C@H](NC(=O)[C@H](CCCNC(=N)N)NC(=O)[C@H](CCCNC(=N)N)NC(=O)[C@H](CC(C)C)NC(=O)[C@H](Cc1ccccc1)NC(=O)[C@@H](N)CCCNC(=N)N)C(=O)N[C@@H](Cc1ccccc1)C(=O)N[C@@H](CCCNC(=N)N)C(=O)N[C@@H](Cc1ccccc1)C(=O)N[C@@H](Cc1ccccc1)C(=O)N[C@@H](Cc1ccccc1)C(N)=O [HT4] (H-RFLRRIFRFFF-NH2) showed viability at 72 h, 12.5 µM equal to 13.4%

----------
# System: MRSA USA 300
# Format: cell-based, Staphylococcus aureus
Non-standard residues stand in square brackets, D forms with d. Residues, ends and D or L forms follow the SMILES beside them.
measure: MIC Gram+ MRSA USA 300 (µM)
Give the value, in units of µM, as a plain number.

Here are 5 compounds together with their reported answers.
CC[C@H](C)[C@H](NC(=O)[C@H](CCCNC(=N)N)NC(=O)[C@H](CCCNC(=N)N)NC(=O)[C@H](CC(C)C)NC(=O)[C@H](Cc1ccccc1)NC(=O)[C@H](Cc1ccccc1)NC(=O)[C@H](Cc1ccccc1)NC(=O)[C@@H](N)Cc1ccccc1)C(=O)N[C@@H](Cc1ccccc1)C(=O)N[C@@H](CCCNC(=N)N)C(=O)N[C@@H](CCCNC(=N)N)C(N)=O [F-SHf(R^5)-RR] (H-FFFFLRRIFRR-NH2; N-terminus assumed)	1.57
CC[C@H](C)[C@H](NC(=O)[C@H](CCCNC(=N)N)NC(=O)[C@H](CCCNC(=N)N)NC(=O)[C@H](CC(C)C)NC(=O)[C@H](Cc1ccccc1)NC(=O)[C@@H](N)CCCNC(=N)N)C(=O)N[C@@H](Cc1ccccc1)C(=O)N[C@@H](CCCCN)C(=O)N[C@@H](Cc1ccccc1)C(=O)N[C@@H](Cc1ccccc1)C(=O)N[C@@H](Cc1ccccc1)C(N)=O [HT5] (H-RFLRRIFKFFF-NH2)	3.13
CC[C@H](C)[C@H](NC(=O)[C@H](CCCNC(=N)N)NC(=O)[C@H](CCCNC(=N)N)NC(=O)[C@H](CC(C)C)NC(=O)[C@@H](N)Cc1ccccc1)C(=O)N[C@@H](Cc1ccccc1)C(=O)N[C@@H](Cc1ccccc1)C(=O)N[C@@H](Cc1ccccc1)C(=O)N[C@@H](Cc1ccccc1)C(N)=O [HT1] (H-FLRRIFFFF-NH2)	6.25
CC[C@H](C)[C@H](NC(=O)[C@H](CCCNC(=N)N)NC(=O)[C@H](CO)NC(=O)[C@H](CC(C)C)NC(=O)[C@H](Cc1ccccc1)NC(=O)[C@H](Cc1ccccc1)NC(=O)[C@H](Cc1ccccc1)NC(=O)[C@H](Cc1ccccc1)NC(=O)[C@@H](N)Cc1ccccc1)C(=O)N[C@@H](Cc1ccccc1)C(N)=O [FF-SHf] (H-FFFFFLSRIF-NH2; N-terminus assumed)	6.25
CC[C@@H](C)[C@@H](NC(=O)[C@@H](CCCNC(=N)N)NC(=O)[C@@H](CCCNC(=N)N)NC(=O)[C@@H](CC(C)C)NC(=O)[C@@H](Cc1ccccc1)NC(=O)[C@H](N)CCCNC(=N)N)C(=O)N[C@H](Cc1ccccc1)C(=O)N[C@H](Cc1ccccc1)C(=O)N[C@H](Cc1ccccc1)C(=O)N[C@H](Cc1ccccc1)C(N)=O [D-HT2] (H-[dR][dF][dL][dR][dR][dI][dF][dF][dF][dF]-NH2; N-terminus assumed)	6.25

The compound CC[C@H](C)[C@H](NC(=O)[C@@H](CCCNC(=N)N)NC(=O)[C@H](CCCNC(=N)N)NC(=O)[C@H](CC(C)C)NC(=O)[C@H](Cc1ccccc1)NC(=O)[C@H](Cc1ccccc1)NC(=O)[C@H](Cc1ccccc1)NC(=O)[C@@H](N)Cc1ccccc1)C(=O)N[C@@H](Cc1ccccc1)C(N)=O [F-SHf(R^5,dR^6)] (H-FFFFLR[dR]IF-NH2; N-terminus assumed) showed MIC Gram+ MRSA USA 300 equal to 3.13

The compound CC[C@H](C)[C@H](NC(=O)[C@H](CCCNC(=N)N)NC(=O)[C@H](CO)NC(=O)[C@H](CC(C)C)NC(=O)[C@H](Cc1ccccc1)NC(=O)[C@H](Cc1ccccc1)NC(=O)[C@H](Cc1ccccc1)NC(=O)[C@H](Cc1ccc(O)cc1)NC(=O)[C@@H](N)Cc1ccc(O)cc1)C(=O)N[C@@H](Cc1ccccc1)C(N)=O [YY-SHf] (H-YYFFFLSRIF-NH2; N-terminus assumed) showed MIC Gram+ MRSA USA 300 equal to 6.25

The compound CC[C@H](C)[C@H](NC(=O)[C@H](CCCNC(=N)N)NC(=O)[C@H](CCCNC(=N)N)NC(=O)[C@H](CC(C)C)NC(=O)[C@H](Cc1ccccc1)NC(=O)[C@@H](N)CCCNC(=N)N)C(=O)N[C@@H](Cc1ccccc1)C(=O)N[C@@H](Cc1ccccc1)C(=O)N[C@@H](Cc1ccccc1)C(=O)N[C@@H](Cc1ccccc1)C(N)=O [HT2] (H-RFLRRIFFFF-NH2) showed MIC Gram+ MRSA USA 300 equal to 1.57
